Values from ChEMBL document CHEMBL4334493

Test system: Streptococcus pneumoniae
protocol_details: Antibacterial activity against Streptococcus pneumoniae ATCC 49619
Format: functional
experimental_endpoint: MIC (µg/mL)

compound	value_qualifier	reported_result
CC[C@H]1OC(=O)[C@H](C)[C@@H](O[C@H]2C[C@@](C)(OC)[C@@H](OC(=O)NCc3cccc(Cl)c3)[C@H](C)O2)[C@H](C)[C@@H](OC2O[C@H](C)C[C@H](N(C)C)[C@H]2O)[C@]2(C)C[C@@H](C)/C(=N\[C@H](C)[C@H]3OC(=O)O[C@@]31C)O2 (some centres undefined)	=	0.03
CC[C@H]1OC(=O)[C@@](C)(F)C(=O)[C@H](C)[C@@H](O[C@@H]2O[C@H](C)C[C@H](N(C)C)[C@H]2O)[C@](C)(OC)C[C@@H](C)C(=O)[C@H](C)[C@H]2N(CCCCn3nncc3-c3cccs3)C(=O)O[C@]12C	=	1
CC[C@H]1OC(=O)[C@@](C)(F)C(=O)[C@H](C)[C@@H](O[C@@H]2O[C@H](C)C[C@H](N(C)C)[C@H]2O)[C@](C)(OC)C[C@@H](C)C(=O)[C@H](C)[C@H]2N(CCCCn3cc(-c4cccs4)nn3)C(=O)O[C@]12C	=	1
CC[C@H]1OC(=O)[C@H](C)C(=O)[C@H](C)[C@@H](O[C@@H]2O[C@H](C)C[C@H](N(C)C)[C@H]2O)[C@](C)(OC)C[C@@H](C)CN[C@H](C)[C@H]2N(CCCCn3cc(-c4cccc(N)c4)nn3)C(=O)O[C@]12C	≤	0.03
